meta.source: patent US8080423B2

# Tested on: Neutral protease (manufactured by Toyobo Co., Ltd.)
# test-summary: Screening of protease reaction promoter (Example 1)
# Assay type: biochemical
# condition-description: test sample 1% in R-1; 660 nm; 20 or more = excellent promoting effect
Documented AH − AL across a set of compounds

Would you please look over these solved cases?
| compound | endpoint-name | recorded-result |
| --- | --- | --- |
| CCCCCCCCCCCC(=O)N(C)CCS(=O)(=O)[O-].[Na+] [LMT, sodium N-lauroyl methyl taurinate] | AH − AL | 29.4 mAbs |
| CCCCCCCCCCCCOCCOCCOCCOCCOCCOCCOCCOCCOCCOCCOCC(=O)O | AH − AL | 29.1 mAbs |
| CCCCCCCCCCCCOS(=O)(=O)[O-].[Na+] [SLS, sodium lauryl sulfate, reference compound] | AH − AL | 4.6 mAbs |

What value of measured AH − AL is listed for CCCCCCCCCCCCCCCCCC(=O)N(C)CCS(=O)(=O)[O-].[Na+] [SMT, sodium N-stearoyl methyl taurinate] ? 23.8 mAbs

What do you get for CCCCCCCCCCCC[N+](C)(C)CC(=O)[O-] [AM-301, betaine lauryl dimethylaminoacetate] ? 12.1 mAbs
